Target desc: acetylcholine receptor
Method notes: SPR, AchR immobilized on CM5 chip, peptide 10 uM
Metric name: Binding affinity (RU)

Here is how some binders turned out for Binding affinity (RU).
Binder	Value units	Experimental value
KRQIRR [6mer-1-363]	RU	121
RKGFYR [6mer-1-381]	RU	124
RKCCEK [6mer-1-739]	RU	32
KKTKAR [6mer-1-762]	RU	13
RRDCFR [6mer-1-798]	RU	18
RKLQQR [6mer-1-390]	RU	121
RRQLRK [6mer-1-376]	RU	121
KRSLQK [6mer-1-378]	RU	153
KRWQTK [6mer-1-400]	RU	123
KRQYTR [6mer-1-382]	RU	139

[I] RRKNAR [6mer-1-737]
[II] KRGYSK [6mer-1-356]
Parameter metric = Binding affinity (RU). Return the lower-valued option from I and II . // respond with label for picked entry
I
(I: 27 RU, II: 153 RU)

[1] KRKDKK [6mer-1-792]
[2] RRSYQK [6mer-1-386]
[3] KKPNPK [6mer-1-790]
Falling order of Binding affinity (RU), please. Provide the ranking by listing each label in its place in the requested order.
2, 1, 3
